biological target: T1, human plasma kallikrein (human, UniProt P03952 20-390; P03952 391-638); assay: ELISA, biotinylated pKal signal over streptavidin background
T1 construct: also called pKal; Human pKal
T1 sequence (P03952 20-390, chain 1 of 2): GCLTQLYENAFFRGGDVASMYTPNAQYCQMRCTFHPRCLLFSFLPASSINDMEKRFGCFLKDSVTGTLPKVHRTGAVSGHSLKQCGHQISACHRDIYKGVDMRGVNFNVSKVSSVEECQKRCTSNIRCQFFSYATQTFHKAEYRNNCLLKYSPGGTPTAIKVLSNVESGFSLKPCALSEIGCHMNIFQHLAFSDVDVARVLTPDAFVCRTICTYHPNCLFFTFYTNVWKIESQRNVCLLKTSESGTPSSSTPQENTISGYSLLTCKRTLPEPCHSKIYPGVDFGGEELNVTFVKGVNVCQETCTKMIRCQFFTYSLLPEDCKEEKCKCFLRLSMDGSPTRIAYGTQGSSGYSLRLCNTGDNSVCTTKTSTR
T1 sequence (P03952 391-638, chain 2 of 2): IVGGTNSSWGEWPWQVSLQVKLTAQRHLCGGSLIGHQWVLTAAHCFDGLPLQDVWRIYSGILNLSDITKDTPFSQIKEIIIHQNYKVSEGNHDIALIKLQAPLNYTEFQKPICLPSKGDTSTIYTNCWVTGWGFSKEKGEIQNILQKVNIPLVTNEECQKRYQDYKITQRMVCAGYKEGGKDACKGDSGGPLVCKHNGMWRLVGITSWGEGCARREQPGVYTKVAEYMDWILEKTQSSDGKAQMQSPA
What ELISA (T/B) was measured for each of the following?
Give bare numbers, in T/B.

Previously resolved entries follow.
[[record]]
binder = "M27-G01 (Fab, V domains shown, HC as printed runs into CH1) VH: EVQLLESGGGLVQPGGSLRLSCAASGFTFSLYRMFWVRQAPGKGLEWVSSIWSSGGPTMYADSVKGRFTISRDNSKNTLYLQMNSLRAEDTAVYYCAREYPSTYYFDYWGQGTLVTVSS VL: DIQMTQSPSSLSASVGDRVTITCRASQSISTYLNWYQQKPGKAPKLLIYGASSLQSGVPSRFSGSGSGTDFTLTISSLQPEDFTIYYCQQSYSDPYTFGQGTKLDIK"
units_label = "T/B"
value_reported = 31.4

[[record]]
binder = "M145-D01 (Fab, V domains shown, HC as printed runs into CH1) VH: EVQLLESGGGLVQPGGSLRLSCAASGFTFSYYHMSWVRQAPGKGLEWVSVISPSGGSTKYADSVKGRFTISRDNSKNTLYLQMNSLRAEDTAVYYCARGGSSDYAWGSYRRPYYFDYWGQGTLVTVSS VL: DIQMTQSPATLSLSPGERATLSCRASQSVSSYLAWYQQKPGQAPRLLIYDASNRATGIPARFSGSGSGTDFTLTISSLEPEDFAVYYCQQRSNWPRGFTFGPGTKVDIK"
units_label = "T/B"
value_reported = 6.2

[[record]]
binder = "M10-F10 (Fab, V domains shown, HC as printed runs into CH1) VH: EVQLLESGGGLVQPGGSLRLSCAASGFTFSFYNMNWVRQAPGKGLEWVSSISPSGGETNYADSVKGRFTISRDNSKNTLYLQMNSLRAEDTAVYYCARGGGAYRNNWWGGFDIWGLGTMVTVSS VL: DIQMTQSPSSLSASVGDRVTITCRASQSISVYLNWYQHKPGKAPKLLIYGASNLQFGVPSRFSGSGYGTDFTLTISSLQPEDFATYHCQQTFSLFTFGGGTKVEIK"
units_label = "T/B"
value_reported = 39.2

[[record]]
binder = "M28-D12 (Fab, V domains shown, HC as printed runs into CH1) VH: EVQLLESGGGLVQPGGSLRLSCAASGFTFSWYTMHWVRQAPGKGLEWVSVIYPSGGPTSYADSVKGRFTISRDNSKNTLYLQMNSLRAEDTATYYCARDGSGSYLGFDYWGQGTLVTVSS VL: DIQMTQSPSSLSASVGDRVTITCRASQSIATYLNWYQQKPGRAPKLLIYAASSLQSGVPSRFVGGGSGSGTHFTLTISSLQPEDFATYYCQQSYSTRETFGQGTKVEIK"
units_label = "T/B"
value_reported = 41.6


Would you mind listing ELISA (T/B) for each of the following binders?
1. M6-D08 (Fab, V domains shown, HC as printed runs into CH1; LC amber q (WYqQK) written as Q) VH: EVQLLESGGGLVQPGGSLRLSCAASGFTFSRYHMVWVRQAPGKGLEWVSSISPSGGWTNYADSVKGRFTISRDNSKNTLYLQMNSLRAEDTAMYYCAREMATIAGQFDPWGQGTLVTVSS VL: DIQMTQSPSSLSASVGDRVTITCRASQSISSYLNWYQQKPGKAPKLLIYGASSLQSGVPSRFSGSGSGTDFTLTISSLQPEDSATYYCQQSYTRWTFGQGTKVEIK
2. M11-E06 (Fab, V domains shown, HC as printed runs into CH1) VH: EVQLLESGGGLVQPGGSLRLSCAASGFTFSQYAMHWVRQAPGKGLEWVSSIYPSGGFTLYADSVKGRFTISRDNSKNTLYLQMNSLRAEDTAMYYCARGGWLAGGELLNWGQGTLVTVSS VL: DIQMTQSPSSLSASIGDRVTISCRASRGIGTYLNWYQQHAGKAPKLLIRAASSLETGVPPRFSGSGSGTDFTLTISSLQSDDFATYYCQESFTNVYNFGQGTKLEIK

Result block:
1. 16
2. 12.6
